# Target Under Test: human α5β3γ2 GABAARs in mouse L(tk−) cells (Homo sapiens, UniProt P18507+P31644)
# Construct: expressed in transfected cells; host or cells: mouse L(tk−) cells, dexamethasone-inducible vector pMSGneo
# Sequence (P31644 32-462): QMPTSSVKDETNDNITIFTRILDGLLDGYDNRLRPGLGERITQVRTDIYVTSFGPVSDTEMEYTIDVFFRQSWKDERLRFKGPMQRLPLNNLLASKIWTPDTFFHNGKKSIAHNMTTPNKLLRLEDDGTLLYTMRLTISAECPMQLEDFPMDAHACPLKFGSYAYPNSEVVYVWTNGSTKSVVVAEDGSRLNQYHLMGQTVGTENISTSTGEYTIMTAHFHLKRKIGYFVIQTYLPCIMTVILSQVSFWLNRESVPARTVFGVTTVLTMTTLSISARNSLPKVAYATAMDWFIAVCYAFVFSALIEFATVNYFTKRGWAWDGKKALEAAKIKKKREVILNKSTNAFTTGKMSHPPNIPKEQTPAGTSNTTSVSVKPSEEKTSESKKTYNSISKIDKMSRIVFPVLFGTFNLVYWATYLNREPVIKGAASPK
# Sequence (P28472 26-473 partner): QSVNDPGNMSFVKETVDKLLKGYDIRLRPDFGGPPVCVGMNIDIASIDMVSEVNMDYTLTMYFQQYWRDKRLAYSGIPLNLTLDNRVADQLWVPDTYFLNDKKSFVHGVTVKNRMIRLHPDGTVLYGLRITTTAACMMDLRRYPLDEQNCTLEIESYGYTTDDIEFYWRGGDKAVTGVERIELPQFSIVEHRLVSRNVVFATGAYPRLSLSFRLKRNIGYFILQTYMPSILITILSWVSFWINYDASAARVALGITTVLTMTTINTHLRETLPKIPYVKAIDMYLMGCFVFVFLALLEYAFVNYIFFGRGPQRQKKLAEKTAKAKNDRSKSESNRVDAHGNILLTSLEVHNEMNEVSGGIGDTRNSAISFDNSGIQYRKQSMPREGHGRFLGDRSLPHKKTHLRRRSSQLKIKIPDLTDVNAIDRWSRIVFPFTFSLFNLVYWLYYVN
# Sequence (P18507 40-475): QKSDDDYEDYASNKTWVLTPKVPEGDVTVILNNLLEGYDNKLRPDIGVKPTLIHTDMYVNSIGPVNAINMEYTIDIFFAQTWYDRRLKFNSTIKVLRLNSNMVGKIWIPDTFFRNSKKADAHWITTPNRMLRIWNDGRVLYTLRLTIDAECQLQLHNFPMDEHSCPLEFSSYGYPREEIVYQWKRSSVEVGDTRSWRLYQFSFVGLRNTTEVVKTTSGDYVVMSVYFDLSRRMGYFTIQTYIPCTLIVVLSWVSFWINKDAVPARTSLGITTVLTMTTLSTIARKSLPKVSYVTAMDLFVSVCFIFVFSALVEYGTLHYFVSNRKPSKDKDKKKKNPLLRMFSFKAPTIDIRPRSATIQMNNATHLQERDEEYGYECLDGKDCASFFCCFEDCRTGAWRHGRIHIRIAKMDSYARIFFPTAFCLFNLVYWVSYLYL
# Assay Remarks: In vitro electrophysiological recording assay (α5-GABAAR relative efficacy), QPatch
# Type: cell-based
# Test Conditions: Conc 0.3 μM; GABA EC10-20
Property Label: α5-GABAAR Relative Efficacy (to DMCM), Qpatch

Smiles Repr | Target Under Test | Measured Result
COc1nc(-c2ccc(CO)nc2)cnc1NC(=O)c1c(-c2ccccc2)noc1C | human α5β3γ2 GABAARs in mouse L(tk−) cells (Homo sapiens, UniProt P18507+P31644) | −0.80
CCOc1ncc(-c2ccc(NC(=O)c3c(-c4ccccc4)noc3C)c(OC)n2)cn1 | human α5β3γ2 GABAARs in mouse L(tk−) cells (Homo sapiens, UniProt P18507+P31644) | −0.90
COc1nc(-c2cnc(N(C)C)nc2)ccc1NC(=O)c1c(-c2ccccc2)noc1C | human α5β3γ2 GABAARs in mouse L(tk−) cells (Homo sapiens, UniProt P18507+P31644) | −0.65
COc1ncc(-c2cnc(NC(=O)c3c(-c4ccccc4)noc3C)c(OC)n2)cn1 | human α5β3γ2 GABAARs in mouse L(tk−) cells (Homo sapiens, UniProt P18507+P31644) | −1.04

Entry source: patent US20240425491A1
